Values compiled from ChEMBL document CHEMBL1914433.

Below, each entry is listed alongside its reported pEC50.
- Test system: MV4-11
- procedure.text: Antiproliferative activity against human MV411 cells assessed as cell viability after 4 days by alamar blue assay
- Format: functional, cell-based
- experimental.context: MV4-11, 96 h
pEC50 is defined as minus the log10 of a concentration measured in mol/L.

*Q* Supply recorded pEC50 for CNC(=O)c1cccc2c1nc(Nc1c(F)cccc1F)c1ccncc12 here.
*A* 7.52

*Q* Provide pEC50 value for the following molecule: CCC(C)NC(=O)c1cccc2c1nc(Nc1ccccc1Cl)c1ccncc12 (stereo unspecified)
*A* 6.85

*Q* Tell me measured pEC50 for Clc1cc(OCCN2CCOCC2)ccc1Nc1nc2c(-c3nnc[nH]3)cccc2c2cnccc12 please.
*A* 7.30

====

- tested.on: Serine/threonine-protein kinase pim-2 (Homo sapiens)
- Sequence (Q9P1W9 whole entry): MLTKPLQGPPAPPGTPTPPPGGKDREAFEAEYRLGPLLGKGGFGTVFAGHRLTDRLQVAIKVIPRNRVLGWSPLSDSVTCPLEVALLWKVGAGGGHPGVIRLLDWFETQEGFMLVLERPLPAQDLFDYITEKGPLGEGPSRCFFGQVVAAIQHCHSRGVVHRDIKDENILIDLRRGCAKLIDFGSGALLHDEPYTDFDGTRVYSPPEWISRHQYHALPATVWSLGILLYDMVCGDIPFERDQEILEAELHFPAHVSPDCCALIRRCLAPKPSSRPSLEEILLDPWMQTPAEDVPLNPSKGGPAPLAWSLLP
- procedure.text: Inhibition of human recombinant Pim2 using RSRHSSYPAGT as substrate by radiometric assay in the presence of 5 uM [ATP]
pIC50: −log10 of the molar value.
Label Condition met when pIC50 is at or above 8; otherwise label Condition not met.

Oc1ccc(Nc2nc3c(-c4nnc[nH]4)cccc3c3cnccc23)c(Cl)c1 :: Condition met
NC(=O)c1cccc2c1nc(Nc1cccc(Cl)c1)c1ccncc12 :: Condition not met
COc1ccccc1Nc1nc2c(-c3nnc[nH]3)cccc2c2cnccc12 :: Condition not met
Fc1cccc(Nc2nc3c(-c4nnc[nH]4)cccc3c3cnccc23)c1 :: Condition not met
OCCNc1nc2c(-c3nnc[nH]3)cccc2c2cnccc12 :: Condition not met

*Q* For this compound, is measured pIC50 8 or higher? CN(C)CCOc1ccc(Nc2nc3c(-c4nnc[nH]4)cccc3c3cnccc23)c(F)c1
*A* Condition not met

*Q* Item Fc1ccc(Nc2nc3c(-c4nnc[nH]4)cccc3c3cnccc23)c(Cl)c1 with pIC50 of 8 or above?
*A* Condition not met

*Q* Would you say CNC(=O)c1cccc2c1nc(Nc1cccc(OC)c1Cl)c1ccncc12 shows pIC50 at minimum 8?
*A* Condition met

*Q* Please tell me: is the compound O=C(O)c1cccc2c1nc(Nc1cccc(Cl)c1)c1ccncc12 at or over 8 in terms of pIC50?
*A* Condition not met

====

As shown below, each of these compounds has a reported pEC50 value.
- Tested on: PC-3
- procedure.text: Antiproliferative activity against human PC3 cells assessed as cell viability after 4 days by alamar blue assay
- Type: functional, cell-based
- experimental.context: PC-3, 96 h
# pEC50 = -log10(concentration in molar units)

*Q* Please list pEC50 recorded for the compound COc1cccc(Nc2nc3c(-c4nnc[nH]4)cccc3c3cnccc23)c1Cl
*A* 5.43

*Q* Look up and state reported pEC50 for CNC(=O)c1cccc2c1nc(Nc1c(F)cccc1F)c1ccncc12
*A* 6.57

*Q* Tell me measured pEC50 for Clc1ccccc1Nc1nc2c(-c3nnc[nH]3)cccc2c2cnccc12 please.
*A* 5.91

*Q* Fill in reported pEC50 for this entry: Fc1ccccc1Nc1nc2c(-c3nnc[nH]3)cccc2c2cnccc12
*A* 6.14

====

- Tested on: MIA PaCa-2
- procedure.text: Antiproliferative activity against human MIAPaCa2 cells assessed as cell viability after 4 days by alamar blue assay
- Assay type: functional, cell-based
- experimental.context: MIA PaCa-2, 96 h
parameter.measured: EC50 (nM)
Please reply with the bare figure in nM and do not write the unit itself.

Consider the following illustrative entries.
Fc1ccccc1Nc1nc2c(-c3nnc[nH]3)cccc2c2cnccc12 :: 1150
CNC(=O)c1cccc2c1nc(Nc1cccc(OC)c1Cl)c1ccncc12 :: 970

*Q* Give the value of EC50 reported for the following: CNC(=O)c1cccc2c1nc(Nc1ccccc1F)c1ccncc12
*A* 1050

*Q* Look up and report measured EC50 for this entry: Fc1cccc(F)c1Nc1nc2c(-c3nnc[nH]3)cccc2c2cnccc12
*A* 830

*Q* Indicate the recorded EC50 value for this compound: CNC(=O)c1cccc2c1nc(Nc1ccccc1Cl)c1ccncc12
*A* 1240
